- Tested on: α-glucosidase from Saccharomyces sp.
- Assay Notes: α-glucosidase inhibitory activity assay (pNPG substrate, absorbance 405 nm)
- Format: biochemical
- Experimental Parameters: 50 μg/mL; - is no activity
- Method: ^1H- and ^13C-NMR spectra and correlation NMR spectra such as COSY, HMBC, HMQC, and DEPT were obtained from a Bruker Avance DPX 400 (or 600) spectrometer (Berlin, Germany). […] The α-glucosidase inhibitory activity of the extracts and fractions was determined using a modified procedure reported method with a slight modification. […] Background absorbance was determined using a non-enzyme control microplate containing the buffer and was subtracted from the absorbance of the samples and controls.
Property Label: Inhibition (%) α-glucosidase

Worked cases, Inhibition (%) α-glucosidase given:
{"columns": ["Compound", "Target Or System", "Inhibition (%) α-glucosidase"],
 "data": [
  ["COc1c(O)cc2oc(-c3ccc(O)c(O)c3)c(OC3OC(C(=O)O)C(O)C(O)C3O)c(=O)c2c1O (stereo not drawn) [compound 8, patuletin-3-glucuronide]", "α-glucosidase from Saccharomyces sp.", 6.11],
  ["C[C@H]1O[C@H](O[C@H]2[C@H](O)[C@@H](O)[C@@H](O[C@H]3[C@H](O)[C@@H](O)C(O)O[C@@H]3CO)O[C@@H]2CO)[C@H](O)[C@@H](O)[C@@H]1N[C@H]1C=C(CO)[C@@H](O)[C@H](O)[C@H]1O (stereo partly drawn) [Acarbose, reference compound]", "α-glucosidase from Saccharomyces sp.", 16.98]
]}

(a) OC[C@H]1O[C@H](OC[C@H]2O[C@H](O[C@]3(CO)O[C@H](CO)[C@@H](O)[C@@H]3O)[C@H](O)[C@@H](O)[C@@H]2O)[C@H](O)[C@@H](O)[C@H]1O
(b) O=C(/C=C/c1ccc(O)c(O)c1)O[C@@H]1C[C@](OC(=O)/C=C/c2ccc(O)c(O)c2)(C(=O)O)C[C@@H](OC(=O)/C=C/c2ccc(O)c(O)c2)[C@H]1O
(c) O=C(CCO)c1ccc(O)cc1
(d) O=C(/C=C/c1ccc(O)c(O)c1)O[C@@H]1C[C@](OC(=O)/C=C/c2ccc(O)c(O)c2)(C(=O)O)C[C@@H](O)[C@H]1O
Sort low-to-high on Inhibition (%) α-glucosidase, please. Answer by naming the labels in the order asked. a, c, b, d

====

- Target Or System: UniProtKB P18031
- Sequence (P18031 1-322 limits assumed): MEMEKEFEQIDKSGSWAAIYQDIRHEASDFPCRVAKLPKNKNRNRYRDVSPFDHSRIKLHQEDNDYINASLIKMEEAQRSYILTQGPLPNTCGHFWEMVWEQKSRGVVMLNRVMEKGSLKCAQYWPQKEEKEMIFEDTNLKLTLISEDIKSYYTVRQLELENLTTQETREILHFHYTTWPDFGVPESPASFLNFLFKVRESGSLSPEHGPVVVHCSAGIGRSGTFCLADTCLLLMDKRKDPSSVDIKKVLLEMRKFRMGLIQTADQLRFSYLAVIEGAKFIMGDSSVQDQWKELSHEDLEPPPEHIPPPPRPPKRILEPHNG
- Assay Notes: PTP1β inhibitory activity assay (colorimetric kit, IR5 phosphopeptide substrate)
- Type: biochemical
- Experimental Parameters: 10 μg/mL; - is no activity
Property Label: inhibition at 10 µg/mL (%)

{"columns": ["Compound", "Unit Info", "inhibition at 10 µg/mL"],
 "data": [
  ["O=C(O)c1ccc(O)c(O)c1 [compound 1, protocatechuic acid]", "%", 28.6]
]}

(a) O=C(/C=C/c1ccc(O)c(O)c1)O[C@@H]1C[C@](OC(=O)/C=C/c2ccc(O)c(O)c2)(C(=O)O)C[C@@H](O)[C@H]1O [compound 11, 1,5-di-O-caffeoylquinic acid]
(b) O=C(CCO)c1ccc(O)cc1 [compound 2]
// compare measured inhibition at 10 µg/mL, left a , right b , return larger Answer with the label corresponding to your selection. a
(a: 10.6%, b: 5.88%)

====

- Target Or System: α-glucosidase from Saccharomyces sp.
- Assay Notes: α-glucosidase inhibitory activity assay (pNPG substrate, absorbance 405 nm)
- Experimental Parameters: isolated compounds
- Method: ^1H- and ^13C-NMR spectra and correlation NMR spectra such as COSY, HMBC, HMQC, and DEPT were obtained from a Bruker Avance DPX 400 (or 600) spectrometer (Berlin, Germany). […] The α-glucosidase inhibitory activity of the extracts and fractions was determined using a modified procedure reported method with a slight modification. […] Background absorbance was determined using a non-enzyme control microplate containing the buffer and was subtracted from the absorbance of the samples and controls.
Each item that follows carries a reported pIC50.
Notebook: values listed as pIC50 are -log10 of the concentration (mol/L).

{"columns": ["Compound", "pIC50"],
 "data": [
  ["O=C(/C=C/c1ccc(O)c(O)c1)O[C@@H]1C[C@](O)(C(=O)O)C[C@@H](OC(=O)/C=C/c2ccc(O)c(O)c2)[C@H]1O [compound 10, 3,5-di-O-caffeoylquinic acid]", 4.05],
  ["COC(=O)[C@]1(O)C[C@@H](OC(=O)/C=C/c2ccc(O)c(O)c2)[C@@H](O)[C@H](OC(=O)/C=C/c2ccc(O)c(O)c2)C1 [compound 6, methyl-3,5-di-O-caffeoylquinic acid]", 4.73]
]}

Report pIC50 for C[C@H]1O[C@H](O[C@H]2[C@H](O)[C@@H](O)[C@@H](O[C@H]3[C@H](O)[C@@H](O)C(O)O[C@@H]3CO)O[C@@H]2CO)[C@H](O)[C@@H](O)[C@@H]1N[C@H]1C=C(CO)[C@@H](O)[C@H](O)[C@H]1O (stereo partly drawn) [Acarbose, reference compound] 3.23
